Test: Pharmacokinetics, single oral gavage, 2 formulations, Wistar and Sprague-Dawley rats
Type: in vivo
Details: female, Wistar, rat, plasma, po, 75 mg/kg, Formulation 2, Wistar (Female)
Readout kind: AUC(0-inf) (ng·h/mL)
Please state the figure in ng·h/mL; there is no need to write the unit.

## Input What measured AUC(0-inf) goes with Cc1cc(Cl)c(COc2cccc3c(-n4cc(F)cn4)cc(C)nc23)c(Cn2cccc(C#N)c2=O)n1 [CFMQ] ?
## Output 11300

* * *

Assay: Pharmacokinetics, single oral gavage, 2 formulations, Wistar and Sprague-Dawley rats
Format: in vivo
Details: male, Wistar, rat, plasma, po, 15 mg/kg, Formulation 2, Wistar (Male)
Readout kind: AUC(0-t)

## Input What measured AUC(0-t) goes with `Cc1cc(Cl)c(COc2cccc3c(-n4cc(F)cn4)cc(C)nc23)c(Cn2cccc(C#N)c2=O)n1` ?
## Output 175 ng·h/mL

* * *

Experiment: Solubility of CFMQ in vehicles
Assay type: physicochemical
Details: citrate/NaOH buffer, aqueous buffer; Citrate/NaOH pH 5
Readout kind: solubility

## Input What measured solubility goes with `Cc1cc(Cl)c(COc2cccc3c(-n4cc(F)cn4)cc(C)nc23)c(Cn2cccc(C#N)c2=O)n1` ?
## Output < 10 µg/mL

* * *

Assay: Pharmacokinetics, single oral gavage, 2 formulations, Wistar and Sprague-Dawley rats
Type: in vivo
Settings: female, Wistar, rat, plasma, po, 75 mg/kg, Formulation 1, Wistar (Female)
Readout kind: half-life (h)
Please state the figure in h; there is no need to write the unit.

## Input What measured half-life goes with `Cc1cc(Cl)c(COc2cccc3c(-n4cc(F)cn4)cc(C)nc23)c(Cn2cccc(C#N)c2=O)n1` ?
## Output 3.13

* * *

Assay: Pharmacokinetics, single oral gavage, CD-1 mice
Type: in vivo, female CD-1 mice
Settings: female, CD-1, mouse, plasma, 250 mg/kg, 240 min, read-out: Average Concentration of HGT3711
Readout kind: concentration at 240 min (ng/mL)
Please state the figure in ng/mL; there is no need to write the unit.

## Input What measured concentration at 240 min goes with `Cc1cc(Cl)c(COc2cccc3c(-n4cc(F)cn4)cc(C)nc23)c(Cn2cccc(C#N)c2=O)n1` ?
## Output 854

* * *

Assay: Solubility of CFMQ in vehicles
Format: physicochemical
Details: 0.1 N HCl, simulated gastric fluid; HCl 0.1N, pH 1.3
Readout kind: solubility (µg/mL)
Please state the figure in µg/mL; there is no need to write the unit.

## Input What measured solubility goes with Cc1cc(Cl)c(COc2cccc3c(-n4cc(F)cn4)cc(C)nc23)c(Cn2cccc(C#N)c2=O)n1 [CFMQ] ?
## Output 320

* * *

Experiment: Pharmacokinetics, single oral gavage, 2 formulations, Wistar and Sprague-Dawley rats
Format: in vivo
Conditions: male, Wistar, rat, plasma, po, 150 mg/kg, Formulation 2, Wistar (Male)
Readout kind: Cmax (ng/mL)
Please state the figure in ng/mL; there is no need to write the unit.

## Input What measured Cmax goes with Cc1cc(Cl)c(COc2cccc3c(-n4cc(F)cn4)cc(C)nc23)c(Cn2cccc(C#N)c2=O)n1 [CFMQ] ?
## Output 119

* * *

Assay: Pharmacokinetics, single oral gavage, CD-1 mice
Type: in vivo, female CD-1 mice
Conditions: female, CD-1, mouse, plasma, 100 mg/kg, 480 min, read-out: Average Concentration of HGT3711
Readout kind: concentration at 480 min (ng/mL)
Please state the figure in ng/mL; there is no need to write the unit.

## Input What measured concentration at 480 min goes with `Cc1cc(Cl)c(COc2cccc3c(-n4cc(F)cn4)cc(C)nc23)c(Cn2cccc(C#N)c2=O)n1` ?
## Output 18

* * *

Test: Pharmacokinetics, single oral gavage, 2 formulations, Wistar and Sprague-Dawley rats
Assay type: in vivo
Conditions: male, Wistar, rat, plasma, po, 75 mg/kg, Formulation 1, Wistar (Male)
Readout kind: Tmax

## Input What measured Tmax goes with `Cc1cc(Cl)c(COc2cccc3c(-n4cc(F)cn4)cc(C)nc23)c(Cn2cccc(C#N)c2=O)n1` ?
## Output 15 min

* * *

Assay: Pharmacokinetics, single oral gavage, CD-1 mice
Assay type: in vivo, female CD-1 mice
Conditions: female, CD-1, mouse, plasma, 450 mg/kg, 30 min, read-out: Average Concentration of HGT3711
Readout kind: concentration at 30 min (ng/mL)
Please state the figure in ng/mL; there is no need to write the unit.

## Input What measured concentration at 30 min goes with Cc1cc(Cl)c(COc2cccc3c(-n4cc(F)cn4)cc(C)nc23)c(Cn2cccc(C#N)c2=O)n1 [CFMQ] ?
## Output 14600

* * *

Assay: Pharmacokinetics, single oral gavage, CD-1 mice
Type: in vivo, female CD-1 mice
Conditions: female, CD-1, mouse, plasma, 100 mg/kg
Readout kind: AUC(0-t) (ng·h/mL)
Please state the figure in ng·h/mL; there is no need to write the unit.

## Input What measured AUC(0-t) goes with Cc1cc(Cl)c(COc2cccc3c(-n4cc(F)cn4)cc(C)nc23)c(Cn2cccc(C#N)c2=O)n1 [CFMQ] ?
## Output 10500

* * *

Test: Pharmacokinetics, single oral gavage, 2 formulations, Wistar and Sprague-Dawley rats
Assay type: in vivo
Conditions: female, Wistar, rat, plasma, po, 15 mg/kg, Formulation 1, Wistar (Female)
Readout kind: Tmax (min)
Please state the figure in min; there is no need to write the unit.

## Input What measured Tmax goes with `Cc1cc(Cl)c(COc2cccc3c(-n4cc(F)cn4)cc(C)nc23)c(Cn2cccc(C#N)c2=O)n1` ?
## Output 49.8

* * *

Test: Plasma kinetics, intravenous, CD-1 mice
Format: in vivo, female CD-1 mice
Details: female, CD-1, mouse, plasma; IV 1 mg/kg
Readout kind: clearance (mL/min/kg)
Please state the figure in mL/min/kg; there is no need to write the unit.

## Input What measured clearance goes with `Cc1cc(Cl)c(COc2cccc3c(-n4cc(F)cn4)cc(C)nc23)c(Cn2cccc(C#N)c2=O)n1` ?
## Output 235

* * *

Test: Solubility of CFMQ in vehicles
Assay type: physicochemical
Conditions: olive oil, oil or lipid
Readout kind: solubility

## Input What measured solubility goes with Cc1cc(Cl)c(COc2cccc3c(-n4cc(F)cn4)cc(C)nc23)c(Cn2cccc(C#N)c2=O)n1 [CFMQ] ?
## Output < 10 µg/mL

* * *

Experiment: Cross-over PK, IV and PO, cynomolgus monkeys
Type: in vivo, male cynomolgus monkey
Details: male, cynomolgus, cynomolgus monkey, plasma; IV (1 mg/kg), Mean; read-out: Vz
Readout kind: Vd (L/kg)
Please state the figure in L/kg; there is no need to write the unit.

## Input What measured Vd goes with `Cc1cc(Cl)c(COc2cccc3c(-n4cc(F)cn4)cc(C)nc23)c(Cn2cccc(C#N)c2=O)n1` ?
## Output 2.98

* * *

Experiment: Pharmacokinetics, single oral gavage, CD-1 mice
Format: in vivo, female CD-1 mice
Conditions: female, CD-1, mouse, plasma, 450 mg/kg
Readout kind: AUC(0-inf)

## Input What measured AUC(0-inf) goes with Cc1cc(Cl)c(COc2cccc3c(-n4cc(F)cn4)cc(C)nc23)c(Cn2cccc(C#N)c2=O)n1 [CFMQ] ?
## Output 40900 ng·h/mL

* * *

Assay: Plasma kinetics, intravenous, Sprague-Dawley rats
Format: in vivo, female Sprague-Dawley rats
Conditions: female, Sprague-Dawley, rat, plasma; IV 1 mg/kg
Readout kind: half-life (h)
Please state the figure in h; there is no need to write the unit.

## Input What measured half-life goes with Cc1cc(Cl)c(COc2cccc3c(-n4cc(F)cn4)cc(C)nc23)c(Cn2cccc(C#N)c2=O)n1 [CFMQ] ?
## Output 2.86

* * *

Assay: Pharmacokinetics, single oral gavage, 2 formulations, Wistar and Sprague-Dawley rats
Assay type: in vivo
Details: female, Wistar, rat, plasma, po, 15 mg/kg, Formulation 2, Wistar (Female)
Readout kind: Cmax (ng/mL)
Please state the figure in ng/mL; there is no need to write the unit.

## Input What measured Cmax goes with `Cc1cc(Cl)c(COc2cccc3c(-n4cc(F)cn4)cc(C)nc23)c(Cn2cccc(C#N)c2=O)n1` ?
## Output 592

* * *

Test: Pharmacokinetics, single oral gavage, 2 formulations, Wistar and Sprague-Dawley rats
Type: in vivo
Conditions: male, Wistar, rat, plasma, po, 150 mg/kg, Formulation 1, Wistar (Male)
Method: Pharmacokinetics and gender differences were evaluated with 2 different formulations of CFMQ (HGT3711) in 2 different types of rat models. These attributes were investigated in a single oral gavage study. Male and female Wistar rats (n=3 per dose group) received CFMQ (HGT3711) at 15, […], and or 150 mg/kg. […] The two vehicle formulations evaluated were formulation 1: 10% N-methyl pyrrolidone (NMP): 10% Ethanol: 30% polyethylene glycol (PEG400): 50% […] […]
Readout kind: half-life (h)
Please state the figure in h; there is no need to write the unit.

## Input What measured half-life goes with Cc1cc(Cl)c(COc2cccc3c(-n4cc(F)cn4)cc(C)nc23)c(Cn2cccc(C#N)c2=O)n1 [CFMQ] ?
## Output 1.63
